Tested on: diaphorase
Test: fluorescently labeled diaphorase binding to peptide array with or without excess FAD
Details: ratio without/with FAD calculated from measured binding values, 1 micromolar diaphorase
Experimental: Measurements were performed in which diaphorase was bound to an array of about 126,000 unique sequences. The sequences were chosen simply to cover sequence space. 16 of the natural 20 amino acids were used to make up these sequences with C, I, M and T omitted. The diaphorase was fluorescently labeled and each peptide sequence feature was scanned and fluorescence recorded on the array. Diaphorase bound tightly to some peptides and not at all to others. […]
recordedEndpoint: Meas. ratio

The examples below pair each entry with its known result.
[[record]]
residuesequence = "YSVDYWYQVDGSG [array peptide with C-terminal GSG linker]"
recordedendpoint = "Meas. ratio"
reported = 0.17

[[record]]
residuesequence = "YRNAAWFSGGSG [array peptide with C-terminal GSG linker]"
recordedendpoint = "Meas. ratio"
reported = 2.86

[[record]]
residuesequence = "AWVELEYQYVFEG"
recordedendpoint = "Meas. ratio"
reported = 0.74

[[record]]
residuesequence = "YRLNLKHPVGGSG [array peptide with C-terminal GSG linker]"
recordedendpoint = "Meas. ratio"
reported = 3.05

[[record]]
residuesequence = "KEAPGPRFGGSG [array peptide with C-terminal GSG linker]"
recordedendpoint = "Meas. ratio"
reported = 0.13

[[record]]
residuesequence = "VVQALFDGSG [array peptide with C-terminal GSG linker]"
recordedendpoint = "Meas. ratio"
reported = 0.64


A: EGYANKLLALFSGSG [array peptide with C-terminal GSG linker]
B: DLDKAFGGSG [array peptide with C-terminal GSG linker]
C: FLQFLGGSG [array peptide with C-terminal GSG linker]
Please put the entries in order of rising Meas. ratio. Answer format: list of labels, ordered as asked. B, A, C
(B: 0.30, A: 0.60, C: 0.87)
